System: Plasma
assayExplanation: Drug level in cynomolgus monkey plasma assessed as compound formation treated with [14C]brivanib alaninate at 10 mg/kg, po administered as single dose via gavage measured after 2 hrs by HPLC analysis
Format: ADME, organism-based, Macaca fascicularis
experimentalConditions: in vivo
assayMetric: Compound recovery
Write the quantity with the unit trailing the number.

# get_value(readout= Compound recovery, system= Plasma) for Cc1cc2c(F)c(Oc3ncnn4cc(OCC(=O)O)c(C)c34)ccc2[nH]1
1.7%

# get_value(readout= Compound recovery, system= Plasma) for Cc1cc2c(F)c(Oc3ncnn4cc(OC[C@@H](C)O[C@@H]5O[C@H](C(=O)O)[C@@H](O)[C@H](O)[C@H]5O)c(C)c34)ccc2[nH]1
2.2%

# get_value(readout= Compound recovery, system= Plasma) for Cc1cc2c(F)c(Oc3ncnn4cc(OC[C@@H](C)O)c(C)c34)ccc2[nH]1
62.7%

# get_value(readout= Compound recovery, system= Plasma) for Cc1c(OC[C@@H](C)O)cn2ncnc(Oc3ccc4[nH]c(C(=O)O)cc4c3F)c12
6.4%
